# STUDY TARGET: Amine oxidase [flavin-containing] B (Mus musculus)
# Sequence (Q8BW75 whole entry): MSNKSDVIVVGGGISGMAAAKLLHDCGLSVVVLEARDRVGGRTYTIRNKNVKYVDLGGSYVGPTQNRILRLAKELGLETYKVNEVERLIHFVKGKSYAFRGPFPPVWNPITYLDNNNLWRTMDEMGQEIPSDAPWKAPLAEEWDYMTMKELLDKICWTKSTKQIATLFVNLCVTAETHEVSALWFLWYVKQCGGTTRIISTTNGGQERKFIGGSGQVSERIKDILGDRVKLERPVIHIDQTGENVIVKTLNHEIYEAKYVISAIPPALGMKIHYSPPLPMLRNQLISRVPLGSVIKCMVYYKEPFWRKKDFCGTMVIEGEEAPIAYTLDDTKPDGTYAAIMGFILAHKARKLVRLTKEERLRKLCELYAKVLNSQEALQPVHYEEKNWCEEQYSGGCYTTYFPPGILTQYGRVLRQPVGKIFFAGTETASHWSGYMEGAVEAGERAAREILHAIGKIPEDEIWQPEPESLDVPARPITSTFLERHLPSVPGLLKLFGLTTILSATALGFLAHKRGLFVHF
# RUN DESCRIPTION: The ability (25 umol/kg/day) to inactivate monoamine oxidase B (MAO-B) was tested on brain mitochondrial membranes of mice, for 3 day
# Type: functional
# EXPERIMENTAL PARAMETERS: 72 h
OBSERVED PROPERTY: Activity (nmol/min/mg)

{"STRUCTURE": "C#CCN(C(=O)OC1=CCN(C)CC1)[C@@H](C)Cc1ccccc1", "OBSERVED PROPERTY": "Activity", "UNITS SYMBOL": "nmol/min/mg", "RESULT VALUE": 3.35}

* * *

# STUDY TARGET: Amine oxidase [flavin-containing] A (Mus musculus, UniProt Q64133)
# Sequence (Q64133 whole entry): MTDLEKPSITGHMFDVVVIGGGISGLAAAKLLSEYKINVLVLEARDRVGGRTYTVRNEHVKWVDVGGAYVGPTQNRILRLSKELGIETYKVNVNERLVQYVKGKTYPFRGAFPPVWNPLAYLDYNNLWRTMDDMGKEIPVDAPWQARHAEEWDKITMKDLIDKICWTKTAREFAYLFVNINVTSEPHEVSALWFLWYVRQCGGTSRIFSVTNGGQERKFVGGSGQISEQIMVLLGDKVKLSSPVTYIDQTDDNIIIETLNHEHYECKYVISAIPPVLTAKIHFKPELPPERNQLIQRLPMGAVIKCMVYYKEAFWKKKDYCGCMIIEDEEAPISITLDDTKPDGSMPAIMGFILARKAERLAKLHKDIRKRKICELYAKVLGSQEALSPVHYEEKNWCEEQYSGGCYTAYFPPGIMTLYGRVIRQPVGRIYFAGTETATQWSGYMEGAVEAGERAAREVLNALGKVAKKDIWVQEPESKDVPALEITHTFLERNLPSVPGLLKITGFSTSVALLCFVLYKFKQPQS
# RUN DESCRIPTION: The ability (25 umol/kg/day) to inactivate monoamine oxidase A(MAO-A) was tested on brain mitochondrial membranes of mice, for 3 day
# Type: functional
# EXPERIMENTAL PARAMETERS: 72 h

{"STRUCTURE": "C#CCN(C(=O)OC1=CCN(C)CC1)[C@@H](C)Cc1ccccc1", "STUDY TARGET": "Amine oxidase [flavin-containing] A (Mus musculus, UniProt Q64133)", "Activity, nmol/min/mg": 0.76}
